Test system: ML-2
Test: cell viability (% survival relative to DMSO control, bortezomib = 0%); higher = less cytotoxic
Conditions: 1 nM; 72 h
measurement_type: cell viability (%)
I only need the number, in %, no unit after it.

Exercise: State the recorded cell viability for this entry: `OCCN1CCN(CCCN2c3ccccc3Sc3ccc(Cl)cc32)CC1`
Key: 99.6

Exercise: State the recorded cell viability for this entry: `Cc1coc2c1C(=O)C(=O)c1c-2ccc2c(C)cccc12`
Key: 113

Exercise: State the recorded cell viability for this entry: `CN(C/C=C/C#CC(C)(C)C)Cc1cccc2ccccc12`
Key: 102

Exercise: State the recorded cell viability for this entry: `C[C@H]1O[C@@H](O[C@H]2[C@@H](O)C[C@H](O[C@H]3[C@@H](O)C[C@H](O[C@H]4CC[C@@]5(C)[C@H](CC[C@@H]6[C@@H]5C[C@@H](O)[C@]5(C)[C@@H](C7=CC(=O)OC7)CC[C@]65O)C4)O[C@@H]3C)O[C@@H]2C)C[C@H](O)[C@@H]1O`
Key: 99

Exercise: State the recorded cell viability for this entry: `c1ccc2c(c1)OCC(=C1NCCN1)O2`
Key: 97.4

Exercise: State the recorded cell viability for this entry: `C#Cc1cnc(O)nc1O`
Key: 102

Exercise: State the recorded cell viability for this entry: `O=C(O)CCc1ccc(NCc2cccc(Oc3ccccc3)c2)cc1`
Key: 84.3

Exercise: State the recorded cell viability for this entry: `CCOC(=O)[C@@]1(CCCCCCOc2ccc(Cl)cc2)CO1`
Key: 109

Exercise: State the recorded cell viability for this entry: `CCOC(=O)N1c2ccc(C(F)(F)F)cc2[C@@H](N(Cc2cc(C(F)(F)F)cc(C(F)(F)F)c2)C(=O)OC)C[C@H]1CC`
Key: 89.8
